- Recorded conditions: 313.15 K; 100 kPa; Liquid; Vibrating tube method

{"Compound": "CC(C)O", "mass density [kg/m3]": 768.446}
{"Compound": "CCCCO", "mass density [kg/m3]": 794.385}
{"Compound": "CCCCOCC(C)O (stereo not given)", "mass density [kg/m3]": 861.241}
{"Compound": "CCC(C)O (stereo not given)", "mass density [kg/m3]": 789.668}
{"Compound": "CCCO", "mass density [kg/m3]": 787.884}

---

- Recorded conditions: 303.15 K; 100 kPa; Liquid; Vibrating tube method
± gives the expanded uncertainty stated by the source.

{"Compound": "CCCCO", "mass density": "802.139 ± 0.15 kg/m3"}
{"Compound": "CCC(C)O (stereo not given)", "mass density": "798.352 ± 0.16 kg/m3"}
{"Compound": "CC(C)O", "mass density": "777.468 ± 0.15 kg/m3"}
{"Compound": "CCCCOCC(C)O (stereo not given)", "mass density": "870.204 ± 0.15 kg/m3"}
{"Compound": "CCCO", "mass density": "796.08 ± 0.16 kg/m3"}

---

This section presents compounds with their documented speed of sound values.
- Recorded conditions: 313.15 K; 100 kPa; Liquid; Frequency=3 MHz; Sing-around technique in a fixed-path interferometer

{"Compound": "CCCCOCC(C)O (stereo not given) [1-butoxy-2-propanol]", "speed of sound [m/s]": 1207}
{"Compound": "CC(C)O [propan-2-ol]", "speed of sound [m/s]": 1096.2}
{"Compound": "CCC(C)O (stereo not given) [butan-2-ol]", "speed of sound [m/s]": 1158.9}
{"Compound": "CCCO [propan-1-ol]", "speed of sound [m/s]": 1156.2}
{"Compound": "CCCCO [butan-1-ol]", "speed of sound [m/s]": 1190.5}

---

- Recorded conditions: 298.15 K; 100 kPa; Liquid; Frequency=3 MHz; Sing-around technique in a fixed-path interferometer
Entries annotated with measured speed of sound

{"Compound": "CCCCO [butan-1-ol]", "Result unit": "m/s", "speed of sound": 1240.6}
{"Compound": "CCC(C)O (stereo not given) [butan-2-ol]", "Result unit": "m/s", "speed of sound": 1213.3}
{"Compound": "CCCCOCC(C)O (stereo not given) [1-butoxy-2-propanol]", "Result unit": "m/s", "speed of sound": 1260.9}
{"Compound": "CCCO [propan-1-ol]", "Result unit": "m/s", "speed of sound": 1207}
{"Compound": "CC(C)O [propan-2-ol]", "Result unit": "m/s", "speed of sound": 1148}

---

- Recorded conditions: 303.15 K; 100 kPa; Liquid; Frequency=3 MHz; Sing-around technique in a fixed-path interferometer
Assay endpoint: speed of sound (m/s)

{"Compound": "CCCCO [butan-1-ol]", "Result unit": "m/s", "Number": 1223.7}
{"Compound": "CCC(C)O (stereo not given) [butan-2-ol]", "Result unit": "m/s", "Number": 1197.2}
{"Compound": "CCCO [propan-1-ol]", "Result unit": "m/s", "Number": 1189.8}
{"Compound": "CCCCOCC(C)O (stereo not given) [1-butoxy-2-propanol]", "Result unit": "m/s", "Number": 1242.9}
{"Compound": "CC(C)O [propan-2-ol]", "Result unit": "m/s", "Number": 1132.2}

---

# maps each entry to its mass density
- Recorded conditions: 293.15 K; 100 kPa; Liquid; Vibrating tube method
± gives the expanded uncertainty stated by the source.

{"Compound": "CCCO [propan-1-ol]", "mass density": "804.144 ± 0.16 kg/m3"}
{"Compound": "CCCCOCC(C)O (stereo not given) [1-butoxy-2-propanol]", "mass density": "879.031 ± 0.15 kg/m3"}
{"Compound": "CCC(C)O (stereo not given) [butan-2-ol]", "mass density": "806.679 ± 0.16 kg/m3"}
{"Compound": "CCCCO [butan-1-ol]", "mass density": "809.807 ± 0.15 kg/m3"}
{"Compound": "CC(C)O [propan-2-ol]", "mass density": "785.739 ± 0.15 kg/m3"}

---

- Recorded conditions: 308.15 K; 100 kPa; Liquid; Vibrating tube method
Numbers after ± are expanded uncertainties.
// reported mass density for each item listed

{"Molecule": "CCCCOCC(C)O (stereo not given)", "mass density": "865.737 ± 0.15 kg/m3"}
{"Molecule": "CCCCO", "mass density": "798.261 ± 0.15 kg/m3"}
{"Molecule": "CC(C)O", "mass density": "773.151 ± 0.15 kg/m3"}
{"Molecule": "CCCO", "mass density": "792.001 ± 0.17 kg/m3"}
{"Molecule": "CCC(C)O (stereo not given)", "mass density": "794.058 ± 0.17 kg/m3"}

---

- Recorded conditions: 293.15 K; 100 kPa; Liquid; Frequency=3 MHz; Sing-around technique in a fixed-path interferometer

{"Molecule": "CCC(C)O (stereo not given) [butan-2-ol]", "speed of sound / m/s": 1230.2}
{"Molecule": "CCCCOCC(C)O (stereo not given) [1-butoxy-2-propanol]", "speed of sound / m/s": 1279}
{"Molecule": "CCCO [propan-1-ol]", "speed of sound / m/s": 1224.2}
{"Molecule": "CCCCO [butan-1-ol]", "speed of sound / m/s": 1257.5}
{"Molecule": "CC(C)O [propan-2-ol]", "speed of sound / m/s": 1168.5}

---

- Recorded conditions: 308.15 K; 100 kPa; Liquid; Frequency=3 MHz; Sing-around technique in a fixed-path interferometer
Below is a list of entries, each paired with its recorded speed of sound value.
Assay endpoint: speed of sound (m/s)

{"Molecule": "CCC(C)O (stereo not given)", "Number": 1177}
{"Molecule": "CCCO", "Number": 1172.8}
{"Molecule": "CC(C)O", "Number": 1114.3}
{"Molecule": "CCCCO", "Number": 1207}
{"Molecule": "CCCCOCC(C)O (stereo not given)", "Number": 1224.9}

---

Consider the following molecules and their measured mass density readings.
- Recorded conditions: 298.15 K; 100 kPa; Liquid; Vibrating tube method
± gives the expanded uncertainty stated by the source.

{"Molecule": "CC(C)O", "mass density": "781.588 ± 0.15 kg/m3"}
{"Molecule": "CCCCO", "mass density": "805.986 ± 0.15 kg/m3"}
{"Molecule": "CCCCOCC(C)O (stereo not given)", "mass density": "874.632 ± 0.15 kg/m3"}
{"Molecule": "CCCO", "mass density": "800.13 ± 0.16 kg/m3"}
{"Molecule": "CCC(C)O (stereo not given)", "mass density": "802.563 ± 0.16 kg/m3"}
